- systemName: Retinaldehyde dehydrogenase 3 (Homo sapiens)
- procedureText: qHTS for Inhibitors of the Aldehyde Dehydrogenase Family (ALDH1A3) Confirmatory screens (AID 2061311); also: nearly all actives have a fitted effect of over 60% in size; also: potency is read from the fitted curve at half-maximal effect
- experimentalContext: ALDH inhibition qHTS; series mostly up to 46 µM
Results filed as inconclusive are left out. The source made the active and inactive calls. Calls follow the shape of the dose curve; as a rule, active = well fitted inhibition curve with a large enough effect; inconclusive = small, poorly fitted or top-dose-only effect; inactive = no such curve, though single readings can be large or run the other way.
measure: Potency

molecule	result
Cc1cccc(C)c1OP(=O)(OCc1c(-c2ccccc2)no[n+]1[O-])Oc1c(C)cccc1C	12.7 µM (active)
CO[C@@H]1[C@H](O)[C@@H](O[C@@H]2C[C@H]3CC[C@@H]4C(CC[C@]5(C)[C@@H](C6=CC(=O)OC6)CC[C@]45O)[C@@]3(C)[C@H](O)C2)O[C@H](C)[C@@H]1O (some centres not stated)	inactive
N#C/C(=C\c1ccc(O)c(O)c1)C(N)=S	1.01 µM (active)
COc1ccc2c(C(=O)c3ccc(Cl)cc3)c(C)n(CC(=O)O)c2c1	inactive
COC1=C[C@@H]2[C@@H]3Cc4ccc(OC)c(O)c4[C@]2(CCN3C)CC1=O	inactive
CN1CC[C@@]2(C)c3cc(O)ccc3N(C)C12 (some centres not stated)	10.1 µM (active)
CCCN1CCc2cccc3c2[C@H]1Cc1ccc(O)c(O)c1-3	22.5 µM (active)
O=[N+]([O-])c1cc(O)c(O)c([N+](=O)[O-])c1	10.1 µM (active)
N#CC(C#N)=Cc1ccc(O)c(O)c1	0.798 µM (active)
[Cl][Pt].[NH2-].[NH2-].c1ccncc1	11.3 µM (active)
COc1cccc(CNc2ccc(S(=O)(=O)Nc3nc(C)c(C)s3)cc2)c1O	12.7 µM (active)
O=S(=O)(c1ccccc1F)N1CCOc2c(N3CCNCC3)cccc21	inactive
CCN1C[C@]2(COC(=O)c3ccccc3N3C(=O)C[C@H](C)C3=O)CC[C@H](OC)[C@@]34[C@@H]5C[C@H]6[C@H](OC)[C@@H]5[C@](O)(C[C@@H]6OC)[C@](O)([C@@H](OC)[C@H]23)[C@@H]14	inactive
N#Cc1c(-c2ccc([N+](=O)[O-])o2)no[n+]1[O-]	7.94 µM (active)
CC/C=C/C=C/C1(C)OC(OC)=C(C(=O)C2C(C)C(=O)c3cc(OC)c(O)c(O)c3C2(C)O)C1=O (configuration not stated)	11 µM (active)
CC1=C(C)C(=O)C(CC[C@](C)(O)CCC[C@H](C)CCC[C@H](C)CCCC(C)C)=C(C)C1=O	10.1 µM (active)
CN(N=O)c1ccc(O)c(O)c1	12.7 µM (active)
Cc1ccc(S(=O)(=O)N[C@@H](CCCCN)C(=O)CCl)cc1	inactive
NC(=O)CI	6.34 µM (active)
CCc1[nH]c2ccc(OC)cc2c1CCN(C)C	inactive
Cc1cc(C(=O)CN2CCCC2)c(C)n1-c1ccc(F)cc1	inactive
CCOC(=O)c1ncn2c1[C@@H]1CCCN1C(=O)c1cc(OC)ccc1-2	inactive
